The measurements presented in this section are drawn from patent US20260137706A1.

- TARGET: GST-RIPK2 fusion protein (human RIPK2, amino acids 1-310) (Homo sapiens, UniProt O43353)
- Construct: made in house; host or cells: baculovirus infected Sf9 cells
- Sequence (O43353 1-310): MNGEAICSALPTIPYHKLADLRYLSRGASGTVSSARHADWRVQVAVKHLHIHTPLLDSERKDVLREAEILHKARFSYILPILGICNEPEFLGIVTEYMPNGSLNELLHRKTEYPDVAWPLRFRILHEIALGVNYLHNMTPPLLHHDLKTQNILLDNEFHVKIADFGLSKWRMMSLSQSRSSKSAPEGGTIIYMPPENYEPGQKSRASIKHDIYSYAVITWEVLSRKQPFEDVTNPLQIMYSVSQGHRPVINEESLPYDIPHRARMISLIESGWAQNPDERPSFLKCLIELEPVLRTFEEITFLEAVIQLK
- PROCEDURE DETAILS: RIPK2 binding competition assay (TR-FRET, Tracer 199 displacement)
- EXPERIMENTAL PARAMETERS: 10 nM Tracer 199, 1 nM GST-RIPK2, read-out: RIPK2 IC50
pIC50: −log10 of the molar value.
MEASURED METRIC: pIC50

ENTRY SMILES: COc1cn2ncc(-c3cc(F)c(OC)c(NS(=O)(=O)C4(CO)CC4)c3)c2cc1S(=O)(=O)C(C)(C)C
pIC50: > 9.00
//
ENTRY SMILES: OCCCNc1cc(-c2cnn3ccc(C(F)(F)F)cc23)cc(F)n1
pIC50: 7.70 to 8.60
//
ENTRY SMILES: CCOc1cc2ncc(-c3cc4cc[nH]c4nc3F)n2cc1S(=O)(=O)C(C)C
pIC50: 8.60 to 9.00
//
ENTRY SMILES: COc1cc2ncc(-c3ccc4cncn4c3)n2cc1S(=O)(=O)C(C)(C)C
pIC50: < 7.70

INPUT: Return reported pIC50; argument: COc1cc2ncc(-c3ccc(N)nc3F)n2cc1S(=O)(=O)CCCO
OUTPUT: < 7.70

====

- TARGET: GST-RIPK2 fusion protein (human RIPK2, amino acids 1-310) (Homo sapiens, UniProt O43353)
- Construct: made in house; host or cells: baculovirus infected Sf9 cells
- PROCEDURE DETAILS: RIPK2 binding competition assay (TR-FRET, Tracer 199 displacement)
- EXPERIMENTAL PARAMETERS: 10 nM Tracer 199, 1 nM GST-RIPK2, read-out: RIPK2 IC50
pIC50: −log10 of the molar value.
MEASURED METRIC: pIC50

Use the examples below as a reference point.
COMPOUND: CC(C)(C)S(=O)(=O)c1cn2c(-c3cc(F)c(N)nc3F)cnc2cc1CO [Example 39]
TARGET: GST-RIPK2 fusion protein (human RIPK2, amino acids 1-310) (Homo sapiens, UniProt O43353)
pIC50: < 7.70
--
COMPOUND: COc1cc2ncc(-c3cnc4c(c3)OCC4O)n2cc1S(=O)(=O)C(C)(C)C (centres unmarked) [Example 87]
TARGET: GST-RIPK2 fusion protein (human RIPK2, amino acids 1-310) (Homo sapiens, UniProt O43353)
pIC50: < 7.70
--
COMPOUND: CC(C)(C)S(=O)(=O)c1cn2c(-c3ccc4[nH]ccc4n3)cnc2cc1OCCO [Example 278]
TARGET: GST-RIPK2 fusion protein (human RIPK2, amino acids 1-310) (Homo sapiens, UniProt O43353)
pIC50: < 7.70
--
COMPOUND: COc1cc2ncc(-c3ccc4nc(N)ccc4c3)n2cc1S(=O)(=O)C(C)(C)C [Example 89]
TARGET: GST-RIPK2 fusion protein (human RIPK2, amino acids 1-310) (Homo sapiens, UniProt O43353)
pIC50: 7.70 to 8.60
--
COMPOUND: COc1cc(-c2cnc3cc(OCCO)c(S(=O)(=O)C(C)(C)C)cn23)cc(NS(=O)(=O)c2cnn(C)c2)c1OC [Example 245]
TARGET: GST-RIPK2 fusion protein (human RIPK2, amino acids 1-310) (Homo sapiens, UniProt O43353)
pIC50: 8.60 to 9.00
--
COMPOUND: CC(C)(C)S(=O)(=O)c1cn2c(-c3cc(Cl)c(N)nc3F)cnc2cc1NCCO [Example 256]
TARGET: GST-RIPK2 fusion protein (human RIPK2, amino acids 1-310) (Homo sapiens, UniProt O43353)
pIC50: 8.60 to 9.00
--
COMPOUND: CC(C)(C)S(=O)(=O)c1cn2c(-c3cc(F)c(N)nc3F)cnc2cc1OCC1(O)COC1 [Example 38]
TARGET: GST-RIPK2 fusion protein (human RIPK2, amino acids 1-310) (Homo sapiens, UniProt O43353)
pIC50: 8.60 to 9.00
--
COMPOUND: COc1cc2ncc(-c3cc(F)c(OC)c4[nH]c(CO)nc34)n2cc1S(=O)(=O)C(C)(C)C [Example 119]
TARGET: GST-RIPK2 fusion protein (human RIPK2, amino acids 1-310) (Homo sapiens, UniProt O43353)
pIC50: > 9.00
--
COMPOUND: CC(C)(C)S(=O)(=O)c1cn2c(-c3cc(F)c(N)nc3F)cnc2cc1OCCN1CCOC1=O [Example 29]
TARGET: GST-RIPK2 fusion protein (human RIPK2, amino acids 1-310) (Homo sapiens, UniProt O43353)
pIC50: 7.70 to 8.60
--
COMPOUND: COc1cc2ncc(-c3cccc(NS(=O)(=O)C4CN(C(=O)OC(C)(C)C)C4)c3)n2cc1S(=O)(=O)C(C)(C)C [Example 155]
TARGET: GST-RIPK2 fusion protein (human RIPK2, amino acids 1-310) (Homo sapiens, UniProt O43353)
pIC50: < 7.70

INPUT: Field request: pIC50 | item: CC(C)(C)S(=O)(=O)c1cc2c(-c3cc(Cl)c(N)nc3F)cnn2cc1OCCO [Example 15]
OUTPUT: 8.60 to 9.00

INPUT: Fill blank: measured pIC50 of the compound CC(C)(C)S(=O)(=O)c1cn2c(-c3cc4c(F)c[nH]c4nc3F)cnc2cc1OCCO [Example 236] is ____.
OUTPUT: > 9.00

INPUT: Query (compound): CC(C)(C)S(=O)(=O)c1cn2c(-c3ccc(N)nc3F)cnc2cc1OCCO [Example 249] ; field requested: pIC50
OUTPUT: < 7.70

INPUT: // returns reported pIC50 for input C[C@H](CO)COc1cn2ncc(-c3cc(Cl)c(N)nc3F)c2cc1S(=O)(=O)C(C)(C)C [Example 200]
OUTPUT: > 9.00

INPUT: What pIC50 value was documented for this compound, COc1cc2ncc(-c3cc(F)c(OC)c(NS(=O)(=O)c4cnc(O)nc4)c3)n2cc1S(=O)(=O)C(C)(C)C [Example 248] ?
OUTPUT: 7.70 to 8.60
